Biological target: Bombyx mori EcR (VP16 fusion, CVBE switch construct) (Bombyx mori, UniProt P49881)
Test: Z3 Assay (HEK-293 cells with CVBE and 6XEcRE LacZ, β-galactosidase reporter)
Conditions: maximum fold induction at any concentration relative to that of GS-E ligand; HEK-293 Z3 cells
quantity_measured: Z3 assay Rel Max FI
Answers are plain numbers.

{"compound": "CCc1ccc(C(=O)NN(C(=O)c2cccc([N+](=O)[O-])c2)C(C)(C)C)c(F)c1", "measured": 0.533}
{"compound": "CCC(N(NC(=O)c1cccc(C)c1C)C(=O)c1cccc(C)c1)C(C)(C)C (stereo not shown)", "measured": 1.122}
{"compound": "Cc1cc(C)cc(C(=O)N(NC(=O)c2ccc3c(c2C)CCCO3)C(C)(C)C)c1", "measured": 1.114}

Here is the next item to consider.
Test item CCc1ccc(C(=O)NN(C(=O)c2cc(C)cc(Cl)c2)C(C)(C)C)cc1 ; Bombyx mori EcR (VP16 fusion, CVBE switch construct) (Bombyx mori, UniProt P49881); reported Z3 assay Rel Max FI was 0.943

====

Target: Bombyx mori EcR (VP16 fusion, CVBE switch construct) (Bombyx mori)
Sequence (P49881 86-606): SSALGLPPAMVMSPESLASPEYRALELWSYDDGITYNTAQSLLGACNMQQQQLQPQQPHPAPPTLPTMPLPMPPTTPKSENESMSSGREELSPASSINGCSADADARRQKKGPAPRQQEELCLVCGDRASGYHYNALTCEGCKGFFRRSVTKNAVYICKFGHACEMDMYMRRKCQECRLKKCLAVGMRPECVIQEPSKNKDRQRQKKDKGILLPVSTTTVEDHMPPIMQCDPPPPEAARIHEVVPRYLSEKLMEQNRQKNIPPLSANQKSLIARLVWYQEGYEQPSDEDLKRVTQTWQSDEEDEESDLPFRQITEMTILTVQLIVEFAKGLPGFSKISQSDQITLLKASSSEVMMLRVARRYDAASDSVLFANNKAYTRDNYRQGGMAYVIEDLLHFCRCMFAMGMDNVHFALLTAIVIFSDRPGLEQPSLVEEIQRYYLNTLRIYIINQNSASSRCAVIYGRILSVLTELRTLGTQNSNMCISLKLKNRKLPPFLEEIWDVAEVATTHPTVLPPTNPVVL
Sequence (P19793 1-462 partner): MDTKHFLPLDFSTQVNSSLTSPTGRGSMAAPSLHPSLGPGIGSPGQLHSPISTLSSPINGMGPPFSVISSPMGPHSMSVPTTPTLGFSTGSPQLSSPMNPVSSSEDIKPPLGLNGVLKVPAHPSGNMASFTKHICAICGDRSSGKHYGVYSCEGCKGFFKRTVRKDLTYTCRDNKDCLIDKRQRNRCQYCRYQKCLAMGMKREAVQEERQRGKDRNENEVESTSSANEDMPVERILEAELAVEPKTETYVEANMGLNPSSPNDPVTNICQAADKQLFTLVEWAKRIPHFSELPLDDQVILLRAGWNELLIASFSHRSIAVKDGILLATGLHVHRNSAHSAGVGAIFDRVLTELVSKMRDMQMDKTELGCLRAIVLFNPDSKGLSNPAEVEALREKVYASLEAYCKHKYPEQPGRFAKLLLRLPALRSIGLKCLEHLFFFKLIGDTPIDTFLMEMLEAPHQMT
Assay: Z3 Assay (HEK-293 cells with CVBE and 6XEcRE LacZ, β-galactosidase reporter)
Conditions: read-out: Z3 assay EC50; HEK-293 Z3 cells, β-galactosidase reporter; average of two wells
quantity_measured: pEC50
Give bare numbers, as −log10 of the molar value.

{"compound": "Cc1cc(C)cc(C(=O)N(NC(=O)c2ccc3c(c2)OC(C)O3)C(C)(C)C)c1 (stereo not shown)", "subject_of_test": "Bombyx mori EcR (VP16 fusion, CVBE switch construct) (Bombyx mori)", "measured": 6.33}

Give one value of pEC50 per listed compound.
1. CCc1ccc(C(=O)NN(C(=O)c2cccc(C)c2)C(C)(C)C)c(F)c1
2. COc1ccccc1C(=O)N(NC(=O)c1ccc2c(c1C)OCOC2)C(C)(C)C
3. Cc1cc(C)cc(C(=O)N(NC(=O)c2cc3c(cc2C)OCO3)C(C)(C)C)c1
4. Cc1c(C(=O)NN(C(=O)c2cc(F)c(F)cc2F)C(C)(C)C)ccc2c1CCCO2

Result:
1. 6.64
2. 5.75
3. 5.39
4. 6.37

Respectfully, I request pEC50 for each entry included below.
1. COc1cnccc1C(=O)N(NC(=O)c1cccc(O)c1C)C(C)(C)C
2. Cc1cc(C)cc(C(=O)N(NC(=O)c2ccc3c(c2C)CCCO3)C(C)(C)C)c1
3. CCc1c(OC)cccc1C(=O)NN(C(=O)c1cccc(Br)c1)C(C)(C)C#N
4. CCc1c(C(=O)NN(C(=O)c2ccccc2OC)C(C)(C)C)ccc2c1OCCO2 [RG-115244]
5. CCc1c(OC)cccc1C(=O)NN(C(=O)c1cc(C)cc(C=NO)c1)C(C)(C)C

Result:
1: 5.25; 2: 7.27; 3: 4.67; 4: 7.07; 5: 6.41

====

Target: GAL4 DBD (1-147)-CfEcR(DEF)/VP16AD-βRXREF-LmUSPEF (Choristoneura fumiferana, UniProt O77240)
Assay: cell-based
Conditions: read-out: 27-63 assay EC50; CHO 27-63 stable cell line, luciferase reporter; average of two wells
quantity_measured: EC50 (µM)
Give bare numbers, in µM.

Here are 3 molecules together with their reported answers.
{"molecule": "CCc1cccc(C(=O)NN(C(=O)c2cc(C)cc(C)c2)C(C)(C)C)c1C", "quantity_measured": "EC50", "unit_text": "µM", "measured": 0.25}
{"molecule": "COc1cccc(C(=O)NN(C(=O)c2cc(C)ccc2Cl)C(C)(C)C)c1Cl", "quantity_measured": "EC50", "unit_text": "µM", "measured": 5.04}
{"molecule": "CCCCC(N(NC(=O)c1ccc(CC)cc1)C(=O)c1cc(OC)c(C)c(OC)c1)C(C)(C)C (centres unmarked)", "quantity_measured": "EC50", "unit_text": "µM", "measured": 2.02}

// for each molecule in input: emit EC50
1. CCCCC(N(NC(=O)c1ccc(CC)cc1)C(=O)c1cc(C)cc(C)c1)C(C)(C)C (centres unmarked)
2. CCc1ccc(C(=O)NN(C(=O)c2cc(OC)c(C)c(OC)c2)C(c2ccccc2)C(C)(C)C)cc1 (racemic)
3. CCc1ccc(C(=O)NN(C(=O)c2ccccc2[N+](=O)[O-])C(C)(C)C)cc1
4. Cc1cc(C)cc(C(=O)N(NC(=O)c2ccc3c(c2)OC(C)O3)C(C)(C)C)c1 (centres unmarked)

Result:
1: 0.11; 2: 1.1; 3: 2.14; 4: 0.714

====

Would you mind telling me the reported Fold Induction, Z3 Assay, 33 uM of each entry?
Target: Bombyx mori EcR (VP16 fusion, CVBE switch construct) (Bombyx mori)
Assay: Z3 Assay (HEK-293 cells with CVBE and 6XEcRE LacZ, β-galactosidase reporter)
Settings: 33 uM ligand; ligand treated / DMSO treated cells; average of two wells
Numbers only.

Sample records with Fold Induction, Z3 Assay, 33 uM:
{"molecule_smiles": "CCc1c(OC)cccc1C(=O)NN(C(=O)c1cccc(Br)c1)C(C)(C)C", "measured": 321}
{"molecule_smiles": "CC(=O)c1cccc(C(=O)NN(C(=O)c2cc(C)cc(C)c2)C(C)(C)C)c1C", "measured": 1279}

Record summary for Cc1cc(C)cc(C(=O)N(NC(=O)c2ccc3c(c2)CCO3)C(C)(C)C)c1 : reported Fold Induction, Z3 Assay, 33 uM = 428
